Data provenance: ChEMBL document CHEMBL4837265

Target: Glucocorticoid receptor (Rattus norvegicus)
Sequence (P06536 whole entry): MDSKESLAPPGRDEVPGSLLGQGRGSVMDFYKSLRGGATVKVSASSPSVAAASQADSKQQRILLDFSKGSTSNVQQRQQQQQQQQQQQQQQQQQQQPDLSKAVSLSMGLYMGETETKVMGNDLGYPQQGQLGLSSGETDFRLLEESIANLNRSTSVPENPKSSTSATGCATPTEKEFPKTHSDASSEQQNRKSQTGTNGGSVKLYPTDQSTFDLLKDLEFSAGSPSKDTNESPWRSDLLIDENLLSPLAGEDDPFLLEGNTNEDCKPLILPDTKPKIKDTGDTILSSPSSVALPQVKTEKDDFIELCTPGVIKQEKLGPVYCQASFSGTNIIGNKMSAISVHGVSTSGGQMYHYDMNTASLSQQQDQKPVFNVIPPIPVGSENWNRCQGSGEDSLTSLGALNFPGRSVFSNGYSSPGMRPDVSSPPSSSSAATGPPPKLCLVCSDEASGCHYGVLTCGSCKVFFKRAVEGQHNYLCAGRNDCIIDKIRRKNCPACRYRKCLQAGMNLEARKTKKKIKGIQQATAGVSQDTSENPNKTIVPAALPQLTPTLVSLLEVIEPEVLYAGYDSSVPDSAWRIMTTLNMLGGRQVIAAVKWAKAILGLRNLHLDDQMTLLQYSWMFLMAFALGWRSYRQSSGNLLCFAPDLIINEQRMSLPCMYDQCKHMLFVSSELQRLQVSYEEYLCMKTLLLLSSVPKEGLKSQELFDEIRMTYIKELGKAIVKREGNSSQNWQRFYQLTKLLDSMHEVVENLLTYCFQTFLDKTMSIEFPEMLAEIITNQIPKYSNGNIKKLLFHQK
Assay: Agonist activity at glucocorticoid receptor in rat INS-1 832/13 cells transfected with 3XGRE-promoter luciferase plasmid construct assessed as induction of receptor transactivation by luciferase reporter gene assay
Please provide measured log10 EC50 for the entries that follow.
Recall that a logarithmic scale is used here: each number is log10 of EC50 in nM.

Value of measured log10 EC50 for the entry C[C@]12Cc3cnn(-c4ccc(F)cc4)c3C=C1CCC[C@@H]2[C@@H](O)CC#N : 3.40

Value of measured log10 EC50 for the entry Cc1ccc(-n2ncc3c2C=C2CCC[C@H]([C@@H](O)c4ccccc4)[C@@]2(C)C3)cc1 : 4.00

Value of measured log10 EC50 for the entry C[C@]12Cc3cnn(-c4ccc(F)cc4)c3C=C1CCC[C@@H]2[C@](C)(O)c1ccc(F)cc1 : 1.20

Value of measured log10 EC50 for the entry COc1cc([C@@](C)(O)[C@H]2CCCC3=Cc4c(cnn4-c4ccc(F)cc4)C[C@@]32C)cc(F)c1F : 0.80

Value of measured log10 EC50 for the entry COc1cc([C@H](O)[C@H]2CCCC3=Cc4c(cnn4-c4ccc(C)cc4)C[C@@]32C)cc(F)c1F : 5.00

Value of measured log10 EC50 for the entry C[C@]12Cc3cnn(-c4ccc(F)cc4)c3C=C1CCC[C@@H]2[C@@H](O)c1ccccc1 : 2.00

Value of measured log10 EC50 for the entry CC(C)(O)[C@H]1CCCC2=Cc3c(cnn3-c3ccc(F)cc3)C[C@@]21C : 1.80

Value of measured log10 EC50 for the entry COc1ccc(-n2ncc3c2C=C2CCC[C@H](C(C)(O)c4cc(F)c(F)c(OC)c4)[C@@]2(C)C3)cc1 (single isomer, unassigned) : 4.00

Value of measured log10 EC50 for the entry Cc1ccc(-n2ncc3c2C=C2CCC[C@H]([C@@H](O)c4ccc(F)cc4)[C@@]2(C)C3)cc1 : 4.50

Value of measured log10 EC50 for the entry Cc1ccc(-n2ncc3c2C=C2CCC[C@H]([C@@H](O)c4ccsc4)[C@@]2(C)C3)cc1 : 4.00

Value of measured log10 EC50 for the entry C[C@]12Cc3cnn(-c4ccc(F)cc4)c3C=C1CCC[C@@H]2[C@@H](O)c1ccsc1 : 2.10

Value of measured log10 EC50 for the entry COc1ccc(-n2ncc3c2C=C2CCC[C@H]([C@@H](O)c4ccccc4)[C@@]2(C)C3)cc1 : 4.00

Value of measured log10 EC50 for the entry C[C@]12Cc3cnn(-c4ccc(F)cc4)c3C=C1CCC[C@@H]2[C@](C)(O)c1ccccc1 : 0.60

Value of measured log10 EC50 for the entry COc1ccc(-n2ncc3c2C=C2CCC[C@H](C(C)(O)c4ccsc4)[C@@]2(C)C3)cc1 (single isomer, unassigned) : 4.00

Value of measured log10 EC50 for the entry Cc1ccc(-n2ncc3c2C=C2CCC[C@H](C(C)(C)O)[C@@]2(C)C3)cc1 : -0.40

Value of measured log10 EC50 for the entry COc1ccc(-n2ncc3c2C=C2CCC[C@H](C(C)(O)c4ccc(F)cc4)[C@@]2(C)C3)cc1 (single isomer, unassigned) : 2.10
